# Tested on: T-47D breast
# method.description: NCI-60 one-dose screen, 48 h
# test.conditions: 10 µM unless noted
About 83,000 compounds went through this panel and 20% of them were active in at least one assay; those are over-represented in the sample as a whole. Active and inactive are the calls of the source. How the source made its calls: active means growth percent below 10; inactive means the rest.
Hi there, use one of these labels in your reply, thanks! TRUE (active), FALSE (inactive)

Consider the following illustrative entries.
- compound: "CC(=O)N1N=C(c2ccc(-n3ccc(C(F)(F)F)n3)c(F)c2)CC1c1ccc[nH]1 (stereo unspecified)"
  assigned.label: "FALSE"
- compound: "COc1ccc(/C=C(\\C#N)n2nc3cccc(F)c3n2)cc1"
  assigned.label: "FALSE"
- compound: "CC(C)(C)c1ccc(NS(=O)(=O)c2ccc3nc(NC(=O)c4cnccn4)[nH]c3c2)cc1"
  assigned.label: "FALSE"

Query :: Returns: the outcome recorded for `O=C(Cc1ccc(/C=C/C(=O)c2nccs2)cc1)Nc1ccccc1` in this assay.
Result :: FALSE

Query :: Returns: the outcome recorded for `COc1ccc(/C=C2\COc3ccc(-c4ccccc4)cc3C2=O)c(OC)c1` in this assay.
Result :: FALSE

Query :: Returns: the outcome recorded for `CN1CCN(c2ccc(NC3=C(Cl)C(=O)c4ncccc4C3=O)cc2C(F)(F)F)CC1` in this assay.
Result :: TRUE

Query :: Returns: the outcome recorded for `Nc1n[nH]c2cccc(C#Cc3cccc(C(=O)Nc4cccc(C(F)(F)F)c4)c3)c12` in this assay.
Result :: FALSE

Query :: Returns: the outcome recorded for `N#C/C(=C\c1cccc(C#N)c1)c1ccccc1` in this assay.
Result :: FALSE

Query :: Returns: the outcome recorded for CC(C)(C)[Si](C)(C)OC1[C@@H](O[Si](C)(C)C(C)(C)C)[C@@H](CNC(=O)NC(=O)CCl)O[C@H]1n1cnc2c(NC(=O)Nc3ccccc3)ncnc21 (stereo partly specified) in this assay.
Result :: TRUE

Query :: Returns: the outcome recorded for `O=c1[nH]nc(-c2ccccc2)c2sc3ncc(-c4ccc(Br)cc4)n3c12` in this assay.
Result :: FALSE

Query :: Returns: the outcome recorded for `CCc1ccc(-c2cn3ccnc3c(-c3ccc4ncn(Cc5ccccc5)c4c3)n2)cc1` in this assay.
Result :: TRUE

Query :: Returns: the outcome recorded for `COc1cc(CC(=O)n2ncc3ccc(N)cc32)cc(OC)c1OC` in this assay.
Result :: FALSE

Query :: Returns: the outcome recorded for `Cc1cccc(NC(=O)Nc2ccc(-n3cnc4cc(-c5ccc(O)cc5)ccc43)cc2)c1` in this assay.
Result :: TRUE

----------
# Tested on: SF-295 CNS
# method.description: NCI-60 one-dose screen, 48 h
# test.conditions: 10 µM unless noted
The panel holds about 83,000 compounds, 20% with a hit somewhere; the sample as a whole holds those more often. Activity calls are given as the source filed them. The calls were made as follows: active = growth percent below 10; inactive = the rest.
Hi there, use one of these labels in your reply, thanks! active, inactive

- compound: "CN1CCN(c2ccc(NC3=C(Cl)C(=O)c4ncccc4C3=O)cc2C(F)(F)F)CC1"
  assigned.label: "inactive"
- compound: "Cc1nn(-c2ccccc2)c(Oc2c(Cl)cccc2Cl)c1/C=N/N=c1\\sc2ccccc2n1C"
  assigned.label: "inactive"
- compound: "CC(Sc1nc2sc3c(c2c(=O)n1-c1ccc(Cl)cc1)CCCC3)C(=O)Nc1nc(-c2ccc(Br)cc2)cs1 (centres undefined)"
  assigned.label: "inactive"
- compound: "Cc1cc2c(c(C)c1Cl)C(=O)/C(=C/c1ccc(O)c(O)c1)O2"
  assigned.label: "inactive"
- compound: "CC(C)(C)c1cc(C=O)cc(C(C)(C)C)c1O"
  assigned.label: "inactive"

Query :: Returns: the outcome recorded for OC(c1cccc(C(F)(F)F)c1)c1cnccc1NC1CCCCC1 (centres undefined) in this assay.
Result :: inactive

Query :: Returns: the outcome recorded for `C=CC(=O)N[C@@H](/C=C/C(=O)OCC)Cc1ccc(-c2cc(Cl)cc(Cl)c2)cc1` in this assay.
Result :: inactive

Query :: Returns: the outcome recorded for `COc1cc2c(c(O)c1Br)C(=O)c1c(O)cc(C[C@H](C)O)cc1[C@H]2[C@H]1c2cc(C[C@H](C)O)cc(O)c2C(=O)c2c1cc(OC)c(Br)c2O` in this assay.
Result :: active

Query :: Returns: the outcome recorded for `COc1ccc2c(c1)oc1c(C)c3c(c(C)c12)C(=O)N(CCN1CCOCC1)C3=O` in this assay.
Result :: inactive

Values were extracted from PubChem BioAssay (NCI).
